Ref: the supplement of paper PMC6992640

Entries and their cell viability
- System: WHIM2 (cells of a triple-negative basal-like breast cancer xenograft);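 note: cells dissociated from PDX tumors propagated in female NSG mouse mammary fat pads, vehicle control 0.1% DMSO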
- ASSAY INFO: cell viability (% of vehicle); higher = less cytotoxic
- EXPERIMENTAL SETUP: 1 µM; 72 h
Please reply with the number alone, leaving off any unit.

Field: example entries. Status: answers known.
1) CN(C)CCOc1ccc(C(=C(CCCl)c2ccccc2)c2ccccc2)cc1.O=C(O)CC(O)(CC(=O)O)C(=O)O [Toremifene Citrate] = 119
2) COc1cc2c(Oc3ccc(NC(=O)C4(C(=O)Nc5ccc(F)cc5)CC4)cc3F)ccnc2cc1OCCCN1CCOCC1 = 71.2

Below: the item to evaluate.
(Q) Indicate its recorded cell viability; the compound in question is Cc1ccc(NC(=O)c2ccc(CN3CCN(C)CC3)cc2)cc1Nc1nc(-c2cccnc2)cs1 [Masitinib (AB1010)]
(A) 114

---

Quick reference: cell viability of the listed items.
- Test system: HCI09 (cells of a triple-negative luminal androgen receptor type breast cancer xenograft)
- ASSAY INFO: cell viability (% of vehicle); higher = less cytotoxic
- EXPERIMENTAL SETUP: 10 µM; 72 h
Please give only the number in your answer, with no unit.

Please review the following examples before continuing.
1) C#CC1(OC(C)=O)CCC2C3CCC4=CC(OC(C)=O)CCC4C3CCC21C (stereo not given) [Ethynodiol diacetate] = 86.3
2) CCCCCCCCCCCC1=C(O)C(=O)C=C(O)C1=O = 22.8

(Q) // Input: CN(C)CCC(c1ccc(Br)cc1)c1ccccn1.O=C(O)C=CC(=O)O (stereo not given) [Brompheniramine hydrogen maleate] . Output its cell viability only.
(A) 103

(Q) Give cell viability for the following compound: "COc1cc(Nc2ncc3c(n2)-c2ccc(Cl)cc2C(c2c(F)cccc2OC)=NC3)ccc1C(=O)O"
(A) 106

---

- System: HCI16 (cells of a triple-negative basal-like breast cancer xenograft)
- ASSAY INFO: cell viability (% of vehicle); higher = less cytotoxic
- EXPERIMENTAL SETUP: 10 µM; 72 h
Please note: cell viability exactly at 100 is f. Only values below 100 get t.

1. CCCC(CCC)C(=O)O = f
2. COc1ccc2c(c1OC)C(=O)OC2C1c2c(cc3c(c2OC)OCO3)CCN1C.Cl (stereo not given) [Noscapine HCl] = f

(Q) Hello, I'm reviewing records and need to know if cell viability of "O=C(O)c1ccccc1" is below 100. Could you check?
(A) f

(Q) Could you please tell me whether cell viability recorded for "Cc1ccc(-c2ncc(Cl)cc2-c2ccc(S(C)(=O)=O)cc2)cn1" is less than 100?
(A) f

(Q) Report whether reported cell viability is lower than 100 (strictly) for CNCCC(Oc1cccc2ccccc12)c1cccs1.Cl (stereo not given) [Duloxetine HCl]
(A) t

---

Readings of cell viability for the listed compounds
- System: HCI09
- ASSAY INFO: cell viability (% of vehicle); higher = less cytotoxic
- EXPERIMENTAL SETUP: 10 µM; 72 h
Where a name gives a salt, the structure may show the parent alone.
Give the figure only, with no unit attached.

1. CCOc1ccc(NC(C)=O)cc1 = 96.9
2. Cn1c(=O)c2[nH]cnc2n(C)c1=O.Cn1c(=O)c2[nH]cnc2n(C)c1=O.NCCN = 93.6

(Q) Please supply the value of reported cell viability for the item CC(O)C1C(=O)N2C(C(=O)O)=C(SC3CNC(C(=O)N(C)C)C3)C(C)C12.O.O.O (stereo not drawn) [Meropenem trihydrate]
(A) 127

(Q) Quote cell viability reported for COc1nc2ccc(Br)cc2cc1[C@@H](c1ccccc1)[C@@](O)(CCN(C)C)c1cccc2ccccc12 [Bedaquiline fumarate] please.
(A) 64.5

(Q) Consider the compound CC1=NS(=O)(=O)c2cc(Cl)ccc2N1 [Diazoxide] . State its measured cell viability.
(A) 86.4

(Q) Complete the entry with cell viability for CCC(=C(c1ccccc1)c1ccc(OCCN(C)C)cc1)c1ccccc1.O=C(O)CC(O)(CC(=O)O)C(=O)O [Tamoxifen Citrate]
(A) 28.1

(Q) Note cell viability for the compound shown: CCc1cc(C(C)=NOCc2ccc(C3CCCCC3)c(C(F)(F)F)c2)ccc1CN1CC(C(=O)O)C1 [BAF312 (Siponimod)]
(A) 44.2

(Q) Provide only the value of recorded cell viability for "CCc1nc(N)nc(N)c1-c1ccc(Cl)cc1"
(A) 81.6

---

- System: HCI01 (cells of a triple-negative basal-like breast cancer xenograft)
- ASSAY INFO: cell viability (% of vehicle); higher = less cytotoxic
- EXPERIMENTAL SETUP: 10 µM; 72 h
MEASURED ATTRIBUTE: cell viability
Reply: number alone, nothing else.

Some solved cases for reference:
1. CCCCCCCCCCCC1=C(O)C(=O)C=C(O)C1=O [Embelin] = 75.6
2. Nc1ncnc2c1ncn2C1OC(CO)C(O)C1O (stereo not given) [Vidarabine] = 64.8
3. Cc1ccsc1C(=CCCN1CCC[C@@H](C(=O)O)C1)c1sccc1C [Tiagabine] = 96.4
4. Nc1nnc(-c2cccc(Cl)c2Cl)c(N)n1 [Lamotrigine] = 95

As a next step, examine the compound that follows.
(Q) Please supply the value of reported cell viability for the item Cc1nc(=O)c2cc(CN(C)c3ccc(C(=O)NC(CCC(=O)O)C(=O)O)s3)ccc2[nH]1 (stereo not given) [Raltitrexed]
(A) 93.9

---

- Test system: HCI09
- ASSAY INFO: cell viability (% of vehicle); higher = less cytotoxic
- EXPERIMENTAL SETUP: 10 µM; 72 h
The entries below are paired with their reported cell viability.
Number, no unit, nothing else.

Below, 6 molecules whose answers are already recorded.
1) CC12CCC3c4ccc(O)cc4CC(CCCCCCCCCS(=O)CCCC(F)(F)C(F)(F)F)C3C1CCC2O (configuration not stated) = 65.5
2) Cc1c(OCC(F)(F)F)ccnc1CS(=O)c1nc2ccccc2[n-]1.[Na+] (configuration not stated) [Lansoprazole sodium] = 124
3) CC(C)(C)c1cc(NC(=O)Nc2ccc(-c3cn4c(n3)sc3cc(OCCN5CCOCC5)ccc34)cc2)no1 = 81.5
4) O=C(CCCN1CC=C(n2c(=O)[nH]c3ccccc32)CC1)c1ccc(F)cc1 = 84.4
5) COc1ccc2cc([C@H](C)C(=O)[O-])ccc2c1.[Na+] [Naproxen Sodium] = 85.8
6) Cn1cc[nH]c1=S = 130

Next molecule, cell viability to be filled in.
(Q) Look up cell viability of N=C(N)NCCCC[C@@H]1NC(=O)CCSSC[C@@H](C(N)=O)NC(=O)[C@@H]2CCCN2C(=O)[C@H](Cc2c[nH]c3ccccc23)NC(=O)[C@H](CC(=O)O)NC(=O)CNC1=O [Eptifibatide] and report it.
(A) 120

---

- Tested on: WHIM30 (cells of a triple-negative basal-like breast cancer xenograft)
- ASSAY INFO: cell viability of combination (% of vehicle); higher = less cytotoxic
- EXPERIMENTAL SETUP: 1 µM; 72 h; partner dose: 10 nM
// reported cell viability of combination per item
Provide a numeric answer; units are not to be included.

Some solved cases for reference:
1) CCN(CC)CCNC(=O)c1c(C)[nH]c(C=C2C(=O)Nc3ccc(F)cc32)c1C.O=C(O)CC(O)C(=O)O [Sunitinib malate] + CC(C)C[C@H](NC(=O)[C@H](CCc1ccccc1)NC(=O)CN1CCOCC1)C(=O)N[C@@H](Cc1ccccc1)C(=O)N[C@@H](CC(C)C)C(=O)[C@@]1(C)CO1 = 33.1
2) CC[C@@H]1/C=C(\C)C[C@H](C)C[C@H](OC)[C@H]2O[C@@](O)(C(=O)C(=O)N3CCCC[C@H]3C(=O)O[C@H](/C(C)=C/[C@@H]3CC[C@H](Cl)[C@H](OC)C3)[C@H](C)[C@@H](O)CC1=O)[C@H](C)C[C@@H]2OC [Pimecrolimus] + CC(C)C[C@H](NC(=O)[C@H](CCc1ccccc1)NC(=O)CN1CCOCC1)C(=O)N[C@@H](Cc1ccccc1)C(=O)N[C@@H](CC(C)C)C(=O)[C@@]1(C)CO1 = 11.7

Field: next compound
(Q) Supply measured cell viability of combination of CC1(C)Cc2c(-c3ccccc3)c(-c3ccc(Cl)cc3)c(CC(=O)O)n2C1 [Licofelone] + CC(C)C[C@H](NC(=O)[C@H](CCc1ccccc1)NC(=O)CN1CCOCC1)C(=O)N[C@@H](Cc1ccccc1)C(=O)N[C@@H](CC(C)C)C(=O)[C@@]1(C)CO1 in your reply.
(A) 18.6

---

- Tested on: HCI01
- ASSAY INFO: cell viability of combination (% of vehicle); higher = less cytotoxic
- EXPERIMENTAL SETUP: 1 µM; 72 h; partner dose: 10 nM
MEASURED ATTRIBUTE: cell viability of combination
Simply state the number, no unit and no words.

Completed entries (count: 2):
1. COc1cccc2c1C(=O)c1c(O)c3c(c(O)c1C2=O)C[C@@](O)(C(C)=O)C[C@@H]3O[C@H]1C[C@H](N)[C@H](O)[C@H](C)O1.Cl [Daunorubicin HCl] + CN(C)C/C=C/C(=O)Nc1cc2c(Nc3ccc(F)c(Cl)c3)ncnc2cc1O[C@H]1CCOC1 = 70.7
2. CN1CCCC1CCOC(C)(c1ccccc1)c1ccc(Cl)cc1.O=C(O)C=CC(=O)O (stereo not drawn) [Clemastine Fumarate] + CN(C)C/C=C/C(=O)Nc1cc2c(Nc3ccc(F)c(Cl)c3)ncnc2cc1O[C@H]1CCOC1 = 54.6

(Q) Report cell viability of combination for CCN1CCN(Cc2ccc(Nc3ncc(F)c(-c4cc(F)c5nc(C)n(C(C)C)c5c4)n3)nc2)CC1.CS(=O)(=O)O + CN(C)C/C=C/C(=O)Nc1cc2c(Nc3ccc(F)c(Cl)c3)ncnc2cc1O[C@H]1CCOC1
(A) 40.5
